Item-by-item account of activity, negative = inhibition
# Assay summary: Stat Signaling Pathway (AID 446);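 further: ME-180 cervical cancer cells given 40 pM IL-6 alongside compound; SIE-controlled beta-lactamase reporter measured as 460/530 nm FRET emission ratio; on the % scale 0 is the no-effect control and ±100 the full control effect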
# Run parameters: ME-180 SIE beta-lactamase reporter, IL-6 stimulated, 5 h; at 17.2 µM (top of the series) unless noted
Records with an inconclusive call do not appear.
Dear colleague, please return just the value in %, with no unit written.

Illustrative cases are given below, each with its answer.
> print(dat)
                                   compound            experimental.endpoint  value.observed
1  Cc1ccc(N2C(=O)CC3(CC4C=CC3C4)C2=O)cc1 (centres undefined)  activity, negative = inhibition              14
2       c1ccc(-n2c(Cc3cccnc3)nc3cnccc32)cc1  activity, negative = inhibition            6.69
3  Cn1c(=O)c2c(nc(NCc3ccc4c(c3)OCO4)n2Cc2ccccc2Cl)n(C)c1=O  activity, negative = inhibition           -2.58
4        O=C(Nc1ccccn1)NC(C(F)(F)F)C(F)(F)F  activity, negative = inhibition           -3.68
5          N#Cc1c(-c2ccccc2Cl)cc(C2CC2)nc1N  activity, negative = inhibition           -2.15
6  COC(=O)c1cccc(Nc2cc(C)nc(-c3ccccc3O)n2)c1  activity, negative = inhibition           -15.1

Quick one: activity, negative = inhibition of `CCCCOc1ccccc1/C=c1/sc2nc(-c3oc4ccccc4c3C)nn2c1=O` ? -12.5

`CN1CC(=O)Nc2ccc(F)cc2C1=O` , same question. 3.5

CCC(=O)N(Cc1cccs1)C1CCOC(C)(C)C1 (centres undefined) , same question. -2.05

`COc1ccc(/C=C(/C#N)c2cccnc2)cc1OC` , same question. 5.95

`Nc1nnc(CC2=CCCCC2)s1` , same question. 3.57

`N#Cc1ccc(-c2ccco2)nc1SCC(=O)c1ccc(Cl)cc1` , same question. -9.2

`O=c1c2ccccc2ncn1Cc1ccco1` , same question. 2.8

`CCN1CCc2c(C#N)c(NCc3ccccc3)nc(N(CC)CC)c2C1` , same question. 12.6

`COc1ccc(/C=N/n2cncn2)cc1CSc1ccccn1` , same question. 10.6

`CCCn1nc(Oc2nc(SC)nc(N(C)C)n2)ccc1=O` , same question. -17.7

`COC(=O)c1c(-n2cnnn2)sc(C)c1C` , same question. 6.13

CC(Sc1ccc2ccccc2n1)C(=O)O (centres undefined) , same question. 5.88

`N#CCSc1nc2c(c(=O)n1Cc1ccco1)C1(CCCC1)Cc1ccccc1-2` , same question. -1.5

`CCn1cc(C(=O)NCCc2ccccc2)c(=O)c2cc(F)c(N3CCN(C)CC3)cc21` , same question. -5.45

`CCOc1nc(SCCOc2ccccc2)nc(N(C)C)n1` , same question. 8.95

====

# System: CP297
# Assay summary: qHTS profiling for inhibitors of Plasmodium falciparum proliferation (AID 504749); further: nearly all actives have a fitted effect of over 60% in size
# Run parameters: P. falciparum in erythrocytes, SYBR Green DNA, 72 h; series mostly up to 28.7 µM
Results filed as inconclusive are left out. Active and inactive are the calls of the source. The call rests on the fitted dose curve; in most records, active means well fitted inhibition curve with a large enough effect; inconclusive means small, poorly fitted or top-dose-only effect; inactive means flat fitted curve, though single readings scatter.
Please answer using one outcome listed in active, inactive

Below are worked cases with known answers.
Molecule	Classification
CC(=O)NC[C@@H]1CN(c2ccc(N3CCOCC3)c(F)c2)C(=O)O1	inactive
CC(C)(C)C(=O)OCC(=O)C1CCC2C3CCC4=CC(=O)CCC4(C)C3CCC12C (stereo unspecified)	inactive
CCN(CC)C(=O)[C@@]1(c2ccccc2)C[C@@H]1CN	inactive
CC(=O)OCC(=O)[C@@]1(O)CCC2C3C[C@H](C)C4=CC(=O)C=CC4(C)C3C(O)CC21C (stereo partly specified)	inactive
C=C[C@@]1(C)C[C@H](OC(=O)CSC(C)(C)CNC(=O)[C@@H](N)C(C)C)[C@@]2(C)C(C)CC[C@@]3(CCC(=O)[C@@H]32)[C@H](C)[C@H]1O (stereo partly specified)	active
CC12C=CC(=O)C=C1[C@@H](F)CC1C2C(O)CC2(C)C1CC[C@]2(O)C(=O)CO (stereo partly specified)	inactive
CC1CCC(C(C)C)C(O)C1 (stereo unspecified)	inactive
CC1(C(=O)O)CCC2(C)CCC3(C)C(=CC(=O)C4C5(C)CCC(O)C(C)(C)C5CCC43C)C2C1 (stereo unspecified)	inactive

Status in this test for CC1CN(c2c(F)c(N)c3c(=O)c(C(=O)O)cn(C4CC4)c3c2F)CC(C)N1 (stereo unspecified) ? inactive

NC(CSSCC(N)C(=O)O)C(=O)O (stereo unspecified) , same question. inactive

`CN(C)CC[C@@](O)(c1ccccc1)c1ccccc1Cl` , same question. active

====

# System: ICS
# Assay summary: qHTS profiling for inhibitors of Plasmodium falciparum proliferation (AID 504749); further: nearly all actives have a fitted effect of over 60% in size; further: potency means the concentration at half of the fitted maximal effect
# Run parameters: P. falciparum in erythrocytes, SYBR Green DNA, 72 h; series mostly up to 28.7 µM
Inconclusive results are not listed. Activity calls are given as the source filed them. Calls come from the whole dose curve; as a rule, active = well fitted inhibition curve with a large enough effect; inconclusive = small, poorly fitted or top-dose-only effect; inactive = flat fitted curve, though single readings scatter.
Experimental endpoint: Potency

Illustrative cases are given below, each with its answer.
Molecule	Value observed
CCCCCOC(=O)Nc1nc(=O)n(C2O[C@H](C)[C@@H](O)[C@@H]2O)cc1F (stereo partly drawn)	inactive
CC(=O)N[C@H]1[C@H](O[C@@H]2c3ccc(c(Cl)c3)Oc3cc4cc(c3O[C@@H]3O[C@H](CO)[C@@H](O)[C@H](O)C3C)Oc3ccc(cc3Cl)C[C@H]3NC(=O)[C@@H](N)c5ccc(O)c(c5)Oc5cc(O)cc(c5)[C@H](NC3=O)C(=O)N[C@H]4C(=O)N[C@H]3C(=O)N[C@@H]2C(=O)N[C@@H](C(=O)O)c2cc(O)cc(O[C@H]4O[C@H](CO)[C@@H](O)C(O)[C@@H]4O)c2-c2cc3ccc2O)O[C@H](CO)[C@@H](O)[C@@H]1O (stereo partly drawn)	inactive
C=CCn1c(=O)n(C2OC(CO)C(O)C2O)c2nc(N)[nH]c(=O)c21 (stereo not drawn)	inactive
C[C@@H]1C(SC2Cn3cnc[n+]3C2)=C(C(=O)[O-])N2C(=O)[C@H]([C@@H](C)O)[C@@H]12 (stereo partly drawn)	inactive
CC[C@H]1OC(=O)[C@H](C)C(=O)[C@H](C)[C@@H](OC2O[C@H](C)C[C@H](N(C)C)[C@@H]2O)[C@@](C)(OC)C[C@@H](C)C(=O)[C@@H](C)C2N(CCCCn3cnc(-c4cccnc4)c3)C(=O)O[C@@]21C (stereo partly drawn)	10 µM (active)

Tell me reported Potency for O=C(O)CC(O)CC(O)/C=C/c1c(C2CC2)nc2ccccc2c1-c1ccc(F)cc1 (stereo not drawn) , tested with ICS. inactive

`Clc1ccc(CS[C@@H](Cn2ccnc2)c2ccc(Cl)cc2Cl)cc1` , same question. 0.891 µM (active)

Nc1nc(Cl)nc2c1ncn2[C@@H]1O[C@H](CO)[C@H](O)C1F (stereo partly drawn) , same question. inactive

CC1CCC(O)C/C1=C\C=C1/CCCC2(C)C1CCC2C(C)/C=C/C(C)C(C)C (stereo not drawn) , same question. 11.2 µM (active)

`CCN(CC)C(=O)Nc1ccc(OC[C@H](O)CNC(C)(C)C)c(C(C)=O)c1` , same question. inactive

Cc1cn([C@H]2CC(F)[C@@H](CO)O2)c(=O)[nH]c1=O (stereo partly drawn) , same question. inactive

Cc1cc2nc3c(=O)[nH]c(=O)nc-3n(CC(O)C(O)C(O)COP(=O)(O)O)c2cc1C (stereo not drawn) , same question. inactive

`CC1(C)C2CC[C@]1(C)[C@@H](O)C2` , same question. inactive

`CCCC[C@H](O)c1ccccc1` , same question. inactive

`CN(C)CC/C=C1\c2ccccc2COc2ccc(CC(=O)O)cc21` , same question. inactive

`CC[C@@H]1/C=C(\C)C[C@H](C)C[C@H](OC)[C@H]2O[C@@](O)(C(=O)C(=O)N3CCCC[C@H]3C(=O)O[C@H](/C(C)=C/[C@@H]3CC[C@H](Cl)[C@H](OC)C3)[C@H](C)[C@@H](O)CC1=O)[C@H](C)C[C@@H]2OC` , same question. inactive

`CO/N=C(/C(=O)N[C@@H]1C(=O)N2C(C(=O)O)=C(CSc3nnnn3C)CS[C@H]12)c1csc(N)n1` , same question. inactive

`C[C@H](O)[C@@H]1C(=O)N2C(C(=O)O)=C(SCCN=CN)C[C@@H]12` , same question. inactive

CC(C)C(=O)OCC(=O)[C@@]12OC(C3CCCCC3)O[C@@H]1CC1C3CCC4=CC(=O)C=C[C@]4(C)C3[C@@H](O)C[C@@]12C (stereo partly drawn) , same question. 0.794 µM (active)

====

# Assay summary: Stat Signaling Pathway (AID 446);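 further: ME-180 cervical cancer cells given 40 pM IL-6 alongside compound; SIE-controlled beta-lactamase reporter measured as 460/530 nm FRET emission ratio; on the % scale 0 is the no-effect control and ±100 the full control effect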
# Run parameters: ME-180 (cervical carcinoma) SIE beta-lactamase reporter, IL-6 stimulated, 5 h; at 17.2 µM (top of the series) unless noted
Results filed as inconclusive are left out. The source made the active and inactive calls. The call rests on the fitted dose curve; in most records, active means well fitted curve in either direction with a large enough effect (not every such curve was filed as active); inconclusive means small, poorly fitted or top-dose-only effect, or another doubt; inactive means flat fitted curve, though single readings scatter.
Experimental endpoint: activity, negative = inhibition

Compound	activity, negative = inhibition
CO[C@H]1C[C@@H]2CC[C@@H](C)[C@@](O)(O2)C(=O)C(=O)N2CCCC[C@H]2C(=O)O[C@H]([C@H](C)C[C@@H]2CC[C@@H](O)[C@H](OC)C2)CC(=O)[C@H](C)C=C(C)[C@@H](O)[C@@H](OC)C(=O)[C@H](C)C[C@H](C)C=CC=CC=C1C	-28.8% (inactive)
COC(=O)C(NC(C)=O)(Nc1ccccc1)C(=O)OC	13.2% (inactive)
COc1ccc(NC(=O)c2c(C)cc(=O)oc2C)c(OC)c1	10.7% (inactive)
Clc1ccc(Cl)c(-c2ccc(/C=N/c3ncn[nH]3)o2)c1	-6.04% (inactive)
CC(=O)C1=C(NC(=O)c2ccccc2F)C[C@@H]2[C@H]1C2(C)C	18.8% (inactive)
CCOC(=O)CNC(=O)CNC(=O)c1ccc(OCC(C)C)cc1	-1.49% (inactive)

Quick one: activity, negative = inhibition of Cc1c(C(Nc2ccccn2)c2ccccc2)c(=O)n(-c2ccccc2)n1C (stereo not drawn) ? 8.77% (inactive)

`Clc1ccc([C@@H](c2ccccc2Cl)C(Cl)Cl)cc1` , same question. 2.17% [at 38 µM] (inactive)

`COc1ccc(Nc2cc(C)nc(-n3nc(C)cc3C)n2)cc1` , same question. -13% (inactive)

CN1C(=O)CC(N2CCN(c3ccc(Cl)c(Cl)c3)CC2)C1=O (stereo not drawn) , same question. 0.709% (inactive)

`Cn1c(SCC(=O)NCc2ccccc2)nc2ccccc21` , same question. 4.04% (inactive)

`CSC(=Nc1ccccc1)C1=C(O)COC1=O` , same question. -5.43% (inactive)

CC1CN(c2oc(-c3cccs3)nc2C#N)CC(C)O1 (stereo not drawn) , same question. 14.9% (inactive)

`O=C(CSc1ncnc2nc[nH]c12)c1ccccc1` , same question. 1.65% [at 7.69 µM] (inactive)

`Cn1c(=O)n(C)c2cc(C(=O)c3ccccc3)ccc21` , same question. -6.62% (inactive)
